# TEST METHOD NOTES: in vivo
# EXPERIMENTAL CONTEXT: mouse, po, 15 mg/kg
EXPERIMENTAL READOUT: bioavailability

State the recorded bioavailability for this entry: CC(=O)Oc1ccccc1C(=O)O
10.3%

----------
# Tested on: H5N1 strain A/Mallard/Bavaria/1/2006
# TEST METHOD NOTES: microbe, parasite or virus in culture
# Format: cell-based, influenza A virus
# EXPERIMENTAL CONTEXT: Influenza A virus, H5N1, A549, in Anas platyrhynchos, read-out: EC50 (concentration required to reduce the virus titer to 50%)
EXPERIMENTAL READOUT: EC50 (µM)
Respond numerically; units are µM and should not be typed.

Given the compound CC(=O)Oc1ccccc1C(=O)O , what is its reported EC50?
170

----------
# TEST METHOD NOTES: in vivo
# EXPERIMENTAL CONTEXT: mouse, po, 15 mg/kg, t1/2
EXPERIMENTAL READOUT: half-life (min)
Give just the numeric value; min need not be written.

# half-life lookup, item CC(=O)Oc1ccccc1C(=O)O [ASA, Acetylsalicylic acid]
8.64
